Values were extracted from ChEMBL document CHEMBL4834472.

- System: MV4-11
- protocol: cells
- cond: Homo sapiens, MV4-11, 72 h
- Description: Antiproliferative activity against human MV4-11 cells assessed as cell death measured after 72 hrs by resazurin dye based assay
Mark each entry 1 if its IC50 sits below 50 nM, and 0 for all others.

input: Determine if `N#Cc1n[nH]c2ccc3nc(-c4c[nH]nc4C(F)(F)F)c4c(c3c12)CCCC4` shows IC50 strictly lower than 50 nM.
output: 0

input: Take the compound [O-][S+]1CCc2c(c(-c3c[nH]nc3C(F)(F)F)nc3ccc4[nH]ncc4c23)C1 (configuration not stated) and say whether its IC50 is less than 50 nM.
output: 1

input: Is IC50 of FC(F)(F)c1n[nH]cc1-c1nc2ccc3[nH]ncc3c2c2c1CC(N1CCOCC1)CC2 (configuration not stated) strictly below 50 nM?
output: 0

input: Lab note: confirm whether the reported IC50 for this compound is below 50 nM, equality not counting. compound: CN1CCN(C2CCc3c(c(-c4c[nH]nc4C(F)(F)F)nc4ccc5[nH]ncc5c34)C2)CC1 (configuration not stated)
output: 0

input: I'd appreciate it if you could check whether `Cc1n[nH]c2cc(F)c3nc(-c4c[nH]nc4C(F)(F)F)c4c(c3c12)CCCC4` has IC50 smaller than 50 nM.
output: 1

input: Does this compound meet the criterion IC50 < 50 nM? OC1CCc2c(c(-c3c[nH]nc3C(F)(F)F)nc3ccc4[nH]ncc4c23)C1 (configuration not stated)
output: 1

---

- System: MV4-11
- protocol: cells
- cond: Homo sapiens, MV4-11, 72 h
pIC50: −log10 of the molar value.
Label criterion not met if pIC50 falls below 6; label criterion met in every other case.

input: Reported pIC50 at or above 6? `c1[nH]nnc1-c1nc2ccc3[nH]ncc3c2c2c1CCCC2`
output: criterion met

input: Please tell me: is the compound `Fc1cc(F)cc(-c2cc(-c3c[nH]nc3C(F)(F)F)nc3ccc4[nH]ncc4c23)c1` at or over 6 in terms of pIC50?
output: criterion not met

input: Textbook exercise: given the entry `Cc1n[nH]c2ccc3nc(-c4c[nH]nc4C(F)(F)F)c4c(c3c12)CCCC4` , state whether its pIC50 is greater than or equal to 6.
output: criterion met

input: Check this compound for pIC50 at or above 6: `FC(F)(F)c1ccc(-c2cc(-c3c[nH]nc3C(F)(F)F)nc3ccc4[nH]ncc4c23)cc1`
output: criterion not met

---

Provide the recorded IC50 for the entries that follow.
- Test system: K562
- protocol: cells
- cond: Homo sapiens, K562, 72 h
- Description: Antiproliferative activity against human K562 cells assessed as cell death measured after 72 hrs by resazurin dye based assay

Lab note: measured IC50 of `FC(F)(F)c1n[nH]cc1-c1nc2ccc3[nH]nc(Cl)c3c2c2c1CCCC2` was > 100 µM

Record CC(=O)NC1CCc2c(c(-c3c[nH]nc3C(F)(F)F)nc3ccc4[nH]ncc4c23)C1 (stereo not drawn) . Reported IC50: > 100 µM

Reported IC50 ( `FC(F)(F)c1ccc(-c2cc(-c3c[nH]nc3C(F)(F)F)nc3ccc4[nH]ncc4c23)cc1` ) = > 100 µM

---

What IC50 was measured for each of the following?
Numeric answer only, unit nM assumed.

// compound `FC(F)(F)c1n[nH]cc1-c1nc2ccc3[nH]nc(I)c3c2c2c1CCCC2` , assay Receptor-type tyrosine-protein kinase FLT3 (Homo sapiens, UniProt P36888, ITD), IC50 value: 21

Param item: NCC1CCc2c(c(-c3c[nH]nc3C(F)(F)F)nc3c(F)cc4[nH]ncc4c23)C1 (stereo not drawn) ; param system: Receptor-type tyrosine-protein kinase FLT3 (Homo sapiens, UniProt P36888, ITD); output IC50: 19
